System: human PCSK9 locus
Assay: Secreted PCSK9 by ELISA in Huh7 cells transfected with mRNA and gRNA
Format: cell-based
Conditions: Huh7 cells, LTRP5-ADD-ZIM3 mRNA, day 6, averaged from the two doses
value kind: Average percent reduction in PCSK9 secretion (%)
The reply should be a number in %, with the unit left off.

Using the record for TG-06-141 (guide ACUGGCCUUAACCUGGCAGC; listed as RNA, chemistry not given here) , report its Average percent reduction in PCSK9 secretion.
82.75

Quick one: TG-06-122 (guide CCUUUGUUUCUUCCCAGUAU; listed as RNA, chemistry not given here)
8.63

Same lookup for TG-06-005 (guide GUGCUCGGGUGCUUCGGCCA; listed as RNA, chemistry not given here) , please.
5.64

Next substance up: TG-06-148 (guide GCCGGGCCCACCUUUUCAGU; listed as RNA, chemistry not given here)
25.15

###

Reported Average percent reduction in PCSK9 secretion values follow for various substances
Test system: human PCSK9 locus
Test: Secreted PCSK9 by ELISA in Huh7 cells transfected with mRNA and gRNA
Type: cell-based
Settings: Huh7 cells, LTRP5-ADD-ZIM3 mRNA, day 6, averaged from the two doses
Method: To assess PCSK9 secretion, seeded Huh7 cells were transfected with mRNA encoding a catalytically-active CasX 676, dXR1, or LTRP5-ADD-ZIM3 and a gRNA with scaffold 316 and spacer targeting either the B2M or PCSK9 locus. Media supernatant was harvested at 6, 18, 36, and 87 days post-transfection to assess level of PCSK9 secretion by ELISA. […] As an additional control, PCSK9 secretion was also measured in the media supernatant harvested from wells containing untreated, naïve cells. […]
// note: answer is a bare numeric in %

// worked examples, Average percent reduction in PCSK9 secretion included
> print(dat)
                                  substance  value.observed
1  TG-06-129 (guide UUUUACACACCAUGUUCAAG; listed as RNA, chemistry not given here)            0.16
2  TG-06-154 (guide AGGGUGUGGGUGCUUGACGC; listed as RNA, chemistry not given here)           78.64
3  TG-06-144 (guide GUGGGCAGCGAGGAGUCCAC; listed as RNA, chemistry not given here)           65.41

# input substance: TG-06-126 (guide CCUUUUCAUCCUCCUGCCUG; listed as RNA, chemistry not given here) ; wanted: its Average percent reduction in PCSK9 secretion
54.27

Moving on to TG-06-117 (guide ACUUUGUUUGCAAAGACCUC; listed as RNA, chemistry not given here)
10.73

Also TG-06-132 (guide AGAAGAUUCAAUUUGCAAAG; listed as RNA, chemistry not given here) ?
12.91

How about this substance: TG-06-158 (guide GGAGCAGGGCGCGUGAAGGG; listed as RNA, chemistry not given here)
72.03

###

# Percent reduction in PCSK9 secretion per entry
System: human PCSK9 locus
Assay: Secreted PCSK9 by ELISA in Huh7 cells transfected with mRNA and gRNA
Type: cell-based
Details: Huh7 cells, LTRP5-ADD-ZIM3 mRNA, 25 ng mRNA:12.5 ng gRNA, day 6, relative to non-targeting gRNA control
Expressed in %, but write only the number.

Recorded Percent reduction in PCSK9 secretion, per entry:
> print(dat)
                                  substance                            value.kind  units.of.measure  value.observed
1  TG-06-126 (guide CCUUUUCAUCCUCCUGCCUG; listed as RNA, chemistry not given here)  Percent reduction in PCSK9 secretion                 %           37.09
2  TG-06-167 (guide CACUGAAUAGCGCAGCCGCA; listed as RNA, chemistry not given here)  Percent reduction in PCSK9 secretion                 %            6.51
3  TG-06-160 (guide CGCGCCCUGCUCCUGAACUU; listed as RNA, chemistry not given here)  Percent reduction in PCSK9 secretion                 %           31.69

Next:
// lookup Percent reduction in PCSK9 secretion for TG-06-135 (guide GGAAAGCUGAGCUUGUGCCU; listed as RNA, chemistry not given here)
37.42

Hello, the source for this data is patent US12594349B2, in case you need it.
